Can you tell me TGI for the items I'm about to list?
- Tested on: SK-MEL-5 melanoma
- ASSAY_TEXT: NCI tumour cell line growth inhibition, 48 h

TGI lookup needed for `COc1ccc(N=Nc2ccc3oc(=O)c(C(=O)Nc4ccc(Cl)cc4)cc3c2)cc1` , thanks.
> 10 µM

TGI lookup needed for `O[C@H]1[C@H]2[C@H](O)C[C@H](CCOCc3ccccc3)CN2C[C@H]1O` , thanks.
> 100 µM

TGI lookup needed for `CCOc1ccc2ccc3cccnc3c2n1` , thanks.
> 100 µM

TGI lookup needed for `Nc1ccc(-c2nc3cc(F)ccc3s2)cc1CO` , thanks.
> 100 µM

TGI lookup needed for `Cc1cc(=O)[nH]c(/N=C(\N)Nc2ccc(Cl)cc2)n1` , thanks.
> 100 µM

TGI lookup needed for `O=C(O)/C(=C\c1ccccc1Cl)S(=O)(=O)c1ccccc1` , thanks.
> 100 µM

---

- System: UO-31 renal
- ASSAY_TEXT: NCI tumour cell line growth inhibition, 48 h
Can you tell me TGI for the items I'm about to list?
Numbers only here, please. The scale is µM.

TGI lookup needed for `CCN(CC)CCOc1ccc2c(c1)C(=O)c1cc(OCCN(CC)CC)ccc1-2` , thanks.
26.3

TGI lookup needed for `O=[N+]([O-])C(=C(Nc1ccccc1)Nc1ccccc1)/C(Cl)=C(\Cl)Br` , thanks.
21.7

---

- System: U251 CNS
- ASSAY_TEXT: NCI tumour cell line growth inhibition, 48 h
MEASUREMENT_KIND: TGI

TGI lookup needed for CC1C=C[C@H](Sc2ccccc2)CC[C@@]1(C)O (stereo partly specified) , thanks.
> 100 µM

TGI lookup needed for `COc1ccc(Cl)cc1NC(=O)c1cccc([N+](=O)[O-])c1O` , thanks.
> 62.7 µM

TGI lookup needed for `Cc1sc(N)c(S(=O)(=O)c2ccccc2)c1C` , thanks.
> 100 µM

TGI lookup needed for `O=S(=O)(O)c1cc(N=[N+]([O-])c2cc(S(=O)(=O)O)c3ccccc3c2)cc2ccccc12` , thanks.
> 100 µM

TGI lookup needed for `c1cc[c]([Sn]([S]c2cccc3cccnc23)([S]c2cccc3cccnc23)[c]2ccccc2)cc1` , thanks.
1.92 µM

TGI lookup needed for CC1SC(c2c(Cl)cccc2Cl)N(NC(=O)C(O)c2ccccc2)C1=O (stereo unspecified) , thanks.
> 100 µM

TGI lookup needed for `O=C(Cn1c2ccc(Br)cc2c2nc3ccccc3nc21)N/N=C/c1ccccc1` , thanks.
> 100 µM

TGI lookup needed for `CCCCCCCCCCCC(=O)c1c(O)cccc1O` , thanks.
34 µM

TGI lookup needed for `CC1(C)CC(=O)c2c(nc(SSc3nc4c(c(-c5ccc(Br)cc5)c3C#N)C(=O)CC(C)(C)C4)c(C#N)c2-c2ccc(Br)cc2)C1` , thanks.
> 10 µM

TGI lookup needed for CCC1(N=[N+]=[N-])C(=O)c2ccccc2N(c2ccccc2)C1=O (stereo unspecified) , thanks.
> 100 µM

TGI lookup needed for `CCCCNC(=O)CCN(C(=O)O)S(=O)(=O)c1ccc(NC(=O)c2ccccc2)cc1` , thanks.
> 100 µM

TGI lookup needed for `NCCP(=O)(O)O` , thanks.
> 100 µM

TGI lookup needed for `CN(C)CCc1ccnc2nc(-c3ccc4ccccc4c3)cn12` , thanks.
> 100 µM

TGI lookup needed for `C1=C(c2ccccc2)SC=C(c2ccccc2)S1` , thanks.
> 100 µM

TGI lookup needed for `C[C@H](CCC(=O)O)[C@H]1CC[C@H]2[C@@H]3[C@H](O)C[C@@H]4C[C@H](O)CC[C@]4(C)[C@H]3CC[C@]12C` , thanks.
> 100 µM

TGI lookup needed for `CCCCCCC#CC#Cc1cccc(=O)o1` , thanks.
4.92 µM

TGI lookup needed for `CC(C)(C)OC(=O)CN1CCc2c(sc3ncnc(N/N=C/c4cccc5ccccc45)c23)C1` , thanks.
14.6 µM

TGI lookup needed for `CCN(CC)c1ccc2cc(C(=O)Nc3nc(C45CC6CC(CC(C6)C4)C5)cs3)c(=O)oc2c1` , thanks.
> 100 µM

TGI lookup needed for COc1ccc2c(c1)CCC1=C/C(=N\NC(N)=O)CCC12C (stereo unspecified) , thanks.
> 10 µM

TGI lookup needed for `CN(NC(=O)/C(=C\c1ccco1)NC(=O)c1ccccc1)c1cn[nH]c(=O)c1Cl` , thanks.
> 100 µM

TGI lookup needed for O=S(=O)(O)/C(=C\c1ccccc1)c1ccccc1 (tested in a mixture with another compound) , thanks.
> 100 µM

---

- System: NCI-H460 lung
Would you mind answering with one of these outcomes? active, inactive

Tell me the assay call for `COc1ccc(-c2nnc(N3CCN(C(=O)CN4CCN(c5ccc(Cl)cc5)CC4)CC3)nc2-c2ccc(OC)cc2)cc1` please.
inactive

Tell me the assay call for `OCC#Cc1ccccc1C#Cc1ccc(C#Cc2ccccc2C#CCO)s1` please.
inactive

Tell me the assay call for `CCCN1C(=O)CSC1=Nc1ccc2cc3ccc(N=C4SCC(=O)N4CCC)cc3nc2c1` please.
inactive

Tell me the assay call for `COC(=O)OCc1ccc2c(c1)C(=O)c1c-2n(CCCBr)c(=O)c2cc([N+](=O)[O-])ccc12` please.
inactive

Tell me the assay call for `CO[C@@]12C[C@H]3[C@@H]([C@@H](O)[C@@H](OC(=O)/C=C/c4ccccc4)[C@@]4(O)C(C)(C)CCC[C@]34C)[C@@H](C)C1=CC(=O)O2` please.
inactive

Tell me the assay call for `O=[N+]([O-])[O-].O=[N+]([O-])[O-].[Au].[Au].c1ccc([P-]c2ccccc2)cc1.c1ccc([P-]c2ccccc2)cc1` please.
inactive

Tell me the assay call for `Cc1nc2cc(Nc3nc(Nc4ccc(F)cc4)nc(N4CCN(C)CC4)n3)ccc2n1Cc1ccccc1` please.
inactive

Tell me the assay call for `O=C(Nc1cccc(O)c1)c1cccc(NC2=C(Cl)C(=O)N(Cc3ccccc3)C2=O)c1` please.
inactive

Tell me the assay call for `C#Cc1cccc(Oc2ccc(NC(=O)CCl)cc2)c1` please.
inactive

Tell me the assay call for CNC(=O)OC1C(O[C@H]2C[C@H]3[C@@H]4CC=C5C[C@@H](O)CC[C@]5(C)[C@H]4CC[C@]3(C)[C@H]2[C@H](C)C(=O)CCC(C)C)OCC(O)C1OC1OCC(O)C(O)C1OC(=O)c1ccc(OC)cc1 (some centres not stated) please.
active

Tell me the assay call for COc1ccc(CC(NC(=O)[C@H](C)NC(=O)CN2CCOCC2)C(=O)N[C@@H](Cc2ccccc2)C(=O)[C@@]2(C)CO2)cc1 (some centres not stated) please.
active

Tell me the assay call for `CC(=O)c1cc2c(c3ccsc13)-c1ccccc1CC2` please.
inactive

---

- System: KM12 colon
- ASSAY_TEXT: NCI tumour cell line growth inhibition, 48 h
MEASUREMENT_KIND: TGI (µM)
Numbers only here, please. The scale is µM.

TGI lookup needed for `Cc1cccc2c1O/C(=C\c1ccc([N+](=O)[O-])o1)C2=O` , thanks.
2.99

TGI lookup needed for `Cc1nc2cc(Nc3nc(Nc4ccc(F)cc4)nc(N4CCN(C)CC4)n3)ccc2n1Cc1ccccc1` , thanks.
3.25

TGI lookup needed for `CC(=O)Oc1cc(C)c(OC(C)=O)c2c1[C@H]1CC[C@]3(C)[C@@H](OC(C)=O)CC[C@H]3[C@@H]1CC2` , thanks.
28.6

TGI lookup needed for `CCCCCCCCCCCC(=O)c1c(O)cccc1O` , thanks.
30

TGI lookup needed for C=C1CC2(CCCC3(CC(=C)C(=O)O3)C2(C)C)OC1=O (configuration not stated) , thanks.
21.8

TGI lookup needed for `C#C[C@]1(O)CC[C@H]2[C@@H]3CCC4=C/C(=N\OCCN(CC)CC)CC[C@]4(C)[C@H]3CC[C@@]21C` , thanks.
11.4

---

- Tested on: NCI/ADR-RES ovarian
- ASSAY_TEXT: NCI tumour cell line growth inhibition, 48 h
Quick rule for you: TGI at 40 µM or higher means yes (1), lower means no (0).

I'd appreciate it if you could say whether O=S(=O)(NC1OCCCC1I)c1ccccc1 (stereo not given) has TGI at least equal to 40 µM.
yes (1)

I'd appreciate it if you could say whether `COc1ccc(CCNC(=O)CCc2ccccc2CO)cc1OC` has TGI at least equal to 40 µM.
yes (1)

I'd appreciate it if you could say whether `O=C1/C(=C\c2ccc(F)cc2)CCOc2c1ccc1ccccc21` has TGI at least equal to 40 µM.
yes (1)

I'd appreciate it if you could say whether `c1ccc2cc(Cn3c[n+](Cc4ccc5ccccc5c4)c4ccccc43)ccc2c1` has TGI at least equal to 40 µM.
yes (1)

I'd appreciate it if you could say whether `O=C(Nc1ccccc1O)c1ccc(CNC(=O)c2sccc2Nc2ccnc(C(F)(F)F)c2)cc1` has TGI at least equal to 40 µM.
yes (1)

I'd appreciate it if you could say whether `CCN(CC)CCOc1ccc2c(c1)C(=O)c1cc(OCCN(CC)CC)ccc1-2` has TGI at least equal to 40 µM.
no (0)

I'd appreciate it if you could say whether `CC(=O)Oc1cc(C)c(OC(C)=O)c2c1[C@H]1CC[C@]3(C)[C@@H](OC(C)=O)CC[C@H]3[C@@H]1CC2` has TGI at least equal to 40 µM.
yes (1)

I'd appreciate it if you could say whether `O=C1c2ccn(CCCCN3CCCCC3)c2C(=O)c2c1c(O)c1ccccc1c2O` has TGI at least equal to 40 µM.
yes (1)

I'd appreciate it if you could say whether `COc1ccc2c(c1)cn1c3ccc(O)cc3[nH]c(=O)c21` has TGI at least equal to 40 µM.
no (0)
